Test system: reflux of contraction of the lower limbs (lumbar plexus)
Experiment: Anaesthesia by conduction (lumbar plexus)
Format: in vivo, frogs
Conditions: lidocaine = 1
Could you mark each record label 1 if its Conduction anaesthesia DL50/t' relative to lidocaine falls strictly under 5, and label 0 if it equals or exceeds it?

Study these solved cases before continuing.
molecule	classification
CCN(CC)Cc1ccc(C(=O)Nc2c(C)cccc2C)cc1 [Compound 3]	label 1
CCN(CC)Cc1ccccc1C(=O)Nc1c(C)cccc1C(=O)OC [Compound 14]	label 1

Consider the molecule Cc1cccc(C)c1NC(=O)c1ccc(CN2CCCC2)cc1 [Compound 6] . Is its Conduction anaesthesia DL50/t' relative to lidocaine strictly less than 5?
label 0

Consider the molecule Cc1cccc(C)c1NC(=O)c1cccc(CN2CCOCC2)c1 [Compound 11] . Is its Conduction anaesthesia DL50/t' relative to lidocaine strictly less than 5?
label 1

Consider the molecule CCN(CC)Cc1cccc(C(=O)Nc2c(C)cccc2C)c1 [Compound 2] . Is its Conduction anaesthesia DL50/t' relative to lidocaine strictly less than 5?
label 0

----------
System: corneal reflux
Assay: Surface anaesthesia (corneal reflux, conjunctival sac)
Settings: concentration in percent achieving 50% of total responses; pH 7 saline; hydrochloride salts
observed.property: Surface anaesthesia CE50 (%)
State just the number; it will be interpreted in %.

smiles	Surface anaesthesia CE50 (%)
Cc1cccc(C)c1NC(=O)c1ccccc1CN1CCCC1	1.85

Under corneal reflux: report Surface anaesthesia CE50 of Cc1cccc(C)c1NC(=O)c1cccc(CN2CCOCC2)c1 .
11.90

----------
Tested on: corneal reflux
Experiment: Surface anaesthesia (corneal reflux, conjunctival sac)
Settings: concentration in percent achieving 50% of total responses; pH 7 saline; hydrochloride salts
observed.property: Surface anaesthesia CE50 (%)
State just the number; it will be interpreted in %.

Please review the entries below; each comes with its answer.
smiles	unit.spec	experimental.result
Cc1cccc(C)c1NC(=O)c1ccc(CN2CCCC2)cc1	%	16.03
Cc1cccc(C)c1NC(=O)c1ccccc1CN1CCOCC1	%	6.86
Cc1cccc(C)c1NC(=O)c1cccc(CN2CCCC2)c1	%	24.12
Cc1cccc(C)c1NC(=O)c1cccc(CN2CCCCC2)c1	%	2.82
Cc1cccc(C)c1NC(=O)c1ccc(CN2CCOCC2)cc1	%	2.82

Read off the recorded Surface anaesthesia CE50 for CCN(CC)Cc1ccccc1C(=O)Nc1c(C)cccc1C
0.50

Read off the recorded Surface anaesthesia CE50 for CCN(CC)Cc1cccc(C(=O)Nc2c(C)cccc2C)c1
0.41
